Entry source: ChEMBL document CHEMBL1121475

# System: Oryctolagus cuniculus
# Test Description: Radioactivity measurements were performed following oral administration of the 100 mg/kg in rabbit 8 after 6 hr in plasma
# Type: ADME, organism-based
# Set-up: dose 100 mg/kg, route oral
# Condition Set: in vivo
Reported Property: Radioactivity level (µg/mL)
Report the figure in µg/mL without appending any unit label.

-- ask What value of measured Radioactivity level is listed for `CN1CCS/C1=N\C(=O)CCC(=O)/N=C1/SCCN1C` ?
-- reply 4

###

# System: Oryctolagus cuniculus
# Test Description: Radioactivity measurements were performed following oral administration of the 100 mg/kg in rabbit 5 after 2 hr in plasma
# Type: ADME, organism-based
# Design: dose 100 mg/kg, route oral
# Condition Set: in vivo
Reported Property: Radioactivity level
Don't forget the unit after the value.

-- ask Observed Radioactivity level on Oryctolagus cuniculus for `CN1CCS/C1=N\C(=O)CCC(=O)/N=C1/SCCN1C` , please.
-- reply 14.2 µg/mL
